Recorded values, source PubChem BioAssay (NCI).

- Test system: SR leukemia
- Test Name: NCI-60 one-dose screen, 48 h (100 = growth as untreated, 0 = no growth, -100 = all killed)
- Condition Description: 10 µM unless noted
Compounds without any hit were thinned out: in the full panel of roughly 83,000, 20% have a hit.
Hi there, I'd appreciate the recorded growth for every entry that follows.
Numbers only, in %.

Give growth for each of the items listed below.
1. Clc1ccc(N2N=C(c3cccc(Nc4ccncc4)c3)CC2c2ccc(Br)cc2)cc1 (stereo not given)
2. c1cnc2nc3c(cc2c1)oc1ccccc13
3. CCC(=O)c1ccc(O)c(OC)c1
4. CC(C)Sc1nc(NN)c(C#N)c(-c2ccccc2)n1

// result
1. 1.87
2. 80.7
3. 108
4. 109

Batch lookup, growth per entry.
1. COc1ccc(Cl)cc1NC(=O)c1c(NC(=O)C(F)(F)C(F)(F)F)sc2c1CCCCC2
2. COc1ccc(CNCCN2C(=O)c3ccc4c5c(ccc(c35)C2=O)C(=O)N(CCNCc2ccc(OC)cc2)C4=O)cc1
3. CCOC(=O)N1CCc2c(sc3nc4nc[nH]n4c(=O)c23)C1

// result
1. 4.32
2. -29.4
3. 101

Dear colleague, could you send me growth for each of the items below? Thanks.
1. COc1ccc(C(=O)c2cc3c(N)c(C(=O)Nc4cccc(Cl)c4C)sc3nc2C)cc1
2. COc1cc(NCCCN(CC(C)C)CC(C)C)c2ncccc2c1
3. COc1ccc(C(=O)c2cc3c(N)c(C(=O)Nc4ccc(Br)cc4)sc3nc2C)cc1
4. O=C(N/N=C/c1ccc(F)cc1)c1ccccc1Nc1cccc(C(F)(F)F)c1
5. COc1ccc(C2CC(c3cccc(Nc4ccncc4)c3)=NN2c2cc(Cl)cc(Cl)c2)cc1 (stereo not given)
6. CCCCCCCC(=O)Nc1nc2[nH]c(CN3CCN(Cc4cccc(I)c4)CC3)c(CN3CCN(Cc4cccc(I)c4)CC3)c2c(=O)[nH]1

// result
1: -27.1; 2: 84.9; 3: 51.5; 4: 24; 5: 2.77; 6: -43.4

Go through the items and report each one's growth.
1. COc1ccc(C2CC(c3cccc(Nc4ccncc4)c3)=NN2c2ccccc2)cc1 (stereo not given)
2. O=C1Nc2c(ccc(Cl)c2Cl)/C1=C/c1ccc(F)cc1
3. CN1CCN(CC#CCNC(=O)[C@]23CCC(C)(C)C[C@H]2C2=CC[C@@H]4[C@@]5(C)Cc6c([nH]c7ccccc67)C(C)(C)[C@@H]5CC[C@@]4(C)[C@]2(C)CC3)CC1
4. Cc1cc2nc(-c3ccccc3)c(-c3ccccc3)nc2cc1C
5. CN(C)c1ccc(-c2c(C#N)c(N)n3nc(N)c(C#N)c3c2C#N)cc1
6. COc1ccc(C(O)c2cc3c(N)c(C(=O)Nc4ccc(Cl)cc4)sc3nc2C)cc1 (stereo not given)

// result
1: 2.73; 2: 73.9; 3: -2.18; 4: 76.9; 5: 62.1; 6: -9.53

Entry CN1C(=O)N(C)[C@H]2NC(NN)=N[C@H]21 ; growth = 100

---

- Test system: PC-3 prostate
- Test Name: NCI-60 one-dose screen, 48 h
- Condition Description: 10 µM unless noted
Compounds without any hit were thinned out: in the full panel of roughly 83,000, 20% have a hit. Activity calls are given as the source filed them. How the source made its calls: active means growth percent below 10; inactive means the rest.
The categories you may choose from are 1 (yes) = active, 0 (no) = inactive

# Compound, Class Name
data = [
    ("Cc1ccc2nc3c(cc2c1)CSc1nnc(-c2ccc[nH]c2=S)n1N3", "0 (no)"),
    ("Cc1ccc(C2CC(c3cccc(Nc4ccncc4)c3)=NN2c2ccccc2)cc1 (stereo unspecified)", "1 (yes)"),
    ("CCNC(=O)c1[nH]cc(-c2ccc(OC)cc2)c1-c1cc(OC)cc(OC)c1", "0 (no)"),
    ("CCCCCCCCCCCC(=O)C(CCCCCCCCCC)C(=O)Nc1ccccc1 (stereo unspecified)", "0 (no)"),
    ("CC(c1ccccc1)n1ccnc1CO (stereo unspecified)", "0 (no)"),
    ("O=C(Nc1cccc(Cl)c1)c1cc(Cl)ccc1O", "1 (yes)"),
    ("O=C(Nc1sc2c(c1C(=O)O)CCCC2)c1cccc(C(F)(F)F)c1", "0 (no)"),
    ("COc1ccc(-c2ncc(-c3ccccc3)[nH]2)cc1OC", "0 (no)"),
    ("Cc1c2c(cc[n+]1Cc1ccccc1)c1ccc(OCC3CCCCC3)cc1n2CC1CCCCC1", "1 (yes)"),
    ("COc1cccc(NC(=O)c2cccc(-c3cc(=O)c4c(OC)c(OC)c(OC)cc4o3)c2)c1", "0 (no)"),
]

// query Recorded test outcome, item COc1ccc(Cc2nc3cc(OC)c(OC)cc3c(=O)[nH]2)cc1
// result 0 (no)

// query Recorded call for O=C(Nc1ccc(F)cc1)c1c(NC(=O)C(F)(F)F)sc2c1CCCCC2 ?
// result 1 (yes)

// query // outcome(item) with item = Cc1c2c(cc[n+]1Cc1ccc(F)cc1)c1ccc(OCc3cccc(F)c3)cc1n2Cc1cccc(F)c1
// result 1 (yes)

---

- Tested on: HCT-15 colon
- Test Name: NCI-60 one-dose screen, 48 h
- Condition Description: 10 µM unless noted
About 83,000 compounds went through this panel and 20% of them were active in at least one assay; those are over-represented in the sample as a whole. Active and inactive are the calls of the source. The calls were made as follows: active = growth percent below 10; inactive = the rest.
// allowed return values: Y = active, N = inactive

Example cases with answers are listed next.
# Compound, Class Name
records = [
    ("COc1ccc2c(/C=C3/C(=O)NC(=S)NC3C)cc(=O)oc2c1 (centres undefined)", "N"),
    ("C#CC(=O)Nc1cccc2c1cc(C)n2-c1nc2c(c(NCc3ccccc3)n1)CCCC2", "Y"),
]

Now consider a different compound.
// query Lab log entry: CCN(CC)CCCCCCNc1cc(OC)cc2cccnc12 — outcome as called in the assay?
// result Y

---

For each of the compounds below, state its growth.
- System: SF-539 CNS
- Test Name: NCI-60 one-dose screen, 48 h (100 = growth as untreated, 0 = no growth, -100 = all killed)
- Condition Description: 10 µM unless noted
About 83,000 compounds went through this panel and 20% of them were active in at least one assay; those are over-represented in the sample as a whole. Activity calls are given as the source filed them. The calls were made as follows: active = growth percent below 10; inactive = the rest.

Solved cases below.
# Compound, growth
records = [
    ("O=C1Nc2c(ccc(Cl)c2Cl)/C1=C/c1ccc([N+](=O)[O-])cc1", "95.4% (inactive)"),
    ("CCCCCCCCCCCCCCCCCCOc1ccccc1N", "20.5% (inactive)"),
    ("NC(=S)N/N=C(\\c1ccc(Cl)cc1)C1CC1", "88.6% (inactive)"),
    ("CCOC(=O)N1CCN(CCCCl)CC1", "97.7% (inactive)"),
    ("N/C(=N\\N=C\\c1cc2ccccc2s1)N/N=C/c1cc2ccccc2s1", "101% (inactive)"),
    ("Cc1ccc(Nc2cc(=S)nc(N)[nH]2)cc1C", "96.4% (inactive)"),
    ("CCCOc1nc(SCCC)nc2c1cnn2-c1ccccc1", "98.4% (inactive)"),
    ("COc1ccc(C(O)c2cc3c(N)c(C(=O)Nc4cccc(Br)c4C)sc3nc2C)cc1 (stereo not given)", "-3.14% (active)"),
    ("Cc1cc2nc(-c3ccccc3)c(-c3ccccc3)nc2cc1C", "109% (inactive)"),
    ("COc1ccc(C2CC(c3cccc(Nc4ccncc4)c3)=NN2c2cc(Cl)cc(Cl)c2)cc1 (stereo not given)", "78% (inactive)"),
]

Required: growth, one value per compound below.
1. C#Cc1cccc(NC(=O)Nc2cccc(N=C=S)c2)c1
2. Clc1nc(Cl)c2ncn(CC3(Cn4cnc5c(Cl)nc(Cl)nc54)COC3)c2n1

// result
102% [8.25 µM] (inactive)
-93.4% (active)

---

- Tested on: COLO 205 colon
- Test Name: NCI-60 one-dose screen, 48 h (100 = growth as untreated, 0 = no growth, -100 = all killed)
- Condition Description: 10 µM unless noted
The panel holds about 83,000 compounds, 20% with a hit somewhere; the sample as a whole holds those more often.
Property Label: growth (%)
Numbers only, in %.

These recorded examples may help you get a feel for the data.
# Compound, Measurement
data = [
    ("COc1ccccc1Nc1cc(O)c2c(=O)cc(-c3ccccc3)oc2c1", 76.8),
    ("Cc1c2c(cc[n+]1Cc1ccc(F)cc1)c1ccc(OCc3cccc(F)c3)cc1n2Cc1cccc(F)c1", -91.1),
]

For every record below, what is its growth?
1. O=C1Nc2cc(-c3ccncc3)ccc2/C1=C/c1ccc[nH]1
2. c1ccc(Cn2nc3c(c2-c2ccccc2)-c2oncc2CC3)cc1
3. COc1ccccc1/C=C1\COc2ccc(-c3ccccc3)cc2C1=O
4. OC(c1ccccc1)c1ccccn1 (stereo not given)
5. COc1ccc(-c2nc(SCCC(C)C)nc(N/N=C(/C)c3ccc(C)cc3)c2C#N)cc1
6. Cn1c(=O)c2[nH]c(CCCc3nc4c([nH]3)c(=O)n(C)c(=O)n4C)nc2n(C)c1=O
7. Cc1nccc2c3ccc(OCc4cn(-c5ccc(Cl)cc5)nn4)cc3n(CCCc3ccccc3)c12
8. CCCCCCNC(=O)Oc1ccc(/C(=C(/CC)Cc2ccccc2)c2ccc(OCCN(CC)CC)cc2)cc1

// result
[112, 113, 9.86, 108, 109, 111, -3.42, -48.6]

I need growth for every entry listed below, if you could help.
1. C[C@H]1[C@H](C)CC[C@]2(CO)CC[C@]3(C)C(=CC[C@@H]4[C@@]5(C)Cc6c([nH]c7ccccc67)C(C)(C)[C@@H]5CC[C@]43C)[C@H]12
2. COc1cc(OC)cc(C2C3=C(COC3=O)Nc3cc(OC)ccc32)c1 (stereo not given)
3. COc1ccc(C(=O)/C=C/c2ccc(OCc3ccccc3)c(OC)c2)cc1OC
4. CC(=O)c1c[nH]c2ccc(-c3ccnc(Nc4ccc(NC(=O)c5cccc(F)c5)c(CN5CCOCC5)c4)n3)cc12
5. COc1ccccc1C(C[N+](=O)[O-])c1c(-c2ccccc2)[nH]c2cc(C)ccc12 (stereo not given)
6. O=C(OCc1nc2nc(Cl)nc(N3CCOCC3)c2[nH]1)n1ccnc1

// result
1. 95.1
2. -74.1
3. 74.6
4. -17.8
5. 78.4
6. -65.3

Look up growth for the entries below, preserving their order.
1. Cc1ccc(S(=O)(=O)Nc2ccc(Cl)cc2)cc1
2. CN(C)Cc1c(-c2ccccc2)[nH]c2ccccc12

// result
1. 111
2. 107

List the reported growth of each compound below.
1. COc1ccc(-c2nc(N/N=C/c3cccc(Br)c3)nc(N3CCOCC3)c2C#N)cc1
2. COc1cc2oc(-c3cccc(C(=O)Nc4ccc(Cl)cc4)c3)cc(=O)c2c(OC)c1OC

// result
40.8
18
